- System: K. pneumoniae NCTC418
- Settings: MH broth pH 7.4, 16–20 h, 37 °C

Record Smiles	Target System	MIC K. pneumoniae NCTC418
CC(C)C[C@@H](NC(=O)[C@@H](CC(C)C)NC(=O)[C@@H](CC(C)C)NC(=O)[C@H](CCCCN)NC(=O)[C@@H](CC(C)C)NC(=O)[C@@H](CC(C)C)NC(=O)[C@H](CCCCN)NC(=O)[C@@H](CC(C)C)NC(=O)[C@@H](CC(C)C)NC(=O)[C@H](CCCCN)NC(=O)[C@@H](N)CCCCN)C(N)=O	K. pneumoniae NCTC418	4 µg/mL
CC(C)C[C@H](NC(=O)[C@@H](CC(C)C)NC(=O)[C@H](CC(C)C)NC(=O)[C@@H](CCCCN)NC(=O)[C@H](CC(C)C)NC(=O)[C@@H](CC(C)C)NC(=O)[C@H](CCCCN)NC(=O)[C@@H](CC(C)C)NC(=O)[C@H](CC(C)C)NC(=O)[C@@H](CCCCN)NC(=O)[C@@H](N)CCCCN)C(N)=O	K. pneumoniae NCTC418	>64 µg/mL
CC(C)C[C@H](NC(=O)[C@@H](CC(C)C)NC(=O)[C@H](CCCCN)NC(=O)[C@@H](CC(C)C)NC(=O)[C@H](CC(C)C)NC(=O)[C@@H](CCCCN)NC(=O)[C@H](CC(C)C)NC(=O)[C@@H](CC(C)C)NC(=O)[C@H](CCCCN)NC(=O)[C@H](N)CCCCN)C(=O)N[C@H](CC(C)C)C(N)=O	K. pneumoniae NCTC418	>64 µg/mL

###

- Tested on: P. aeruginosa PAO1
- Settings: MH broth pH 7.4, 16–20 h, 37 °C
Non-standard residues stand in square brackets, D forms with d. Residues, ends and D or L forms follow the SMILES beside them.

Compound	Target System	MIC P. aeruginosa PAO1
CC(C)C[C@H](NC(=O)[C@H](CC(C)C)NC(=O)[C@@H](CCCCN)NC(=O)[C@H](CC(C)C)NC(=O)[C@H](CC(C)C)NC(=O)[C@@H](CCCCN)NC(=O)[C@H](CC(C)C)NC(=O)[C@H](CC(C)C)NC(=O)[C@@H](CCCCN)NC(=O)[C@H](N)CCCCN)C(=O)N[C@H](CC(C)C)C(N)=O	P. aeruginosa PAO1	8 µg/mL
CC(C)C[C@H](NC(=O)[C@H](CC(C)C)NC(=O)[C@H](CC(C)C)NC(=O)[C@@H](CCCCN)NC(=O)[C@H](CC(C)C)NC(=O)[C@H](CC(C)C)NC(=O)[C@@H](CCCCN)NC(=O)[C@H](CC(C)C)NC(=O)[C@H](CC(C)C)NC(=O)[C@@H](CCCCN)NC(=O)[C@H](N)CCCCN)C(N)=O	P. aeruginosa PAO1	8 µg/mL
CC(C)C[C@H](NC(=O)[C@H](CC(C)C)NC(=O)[C@@H](CC(C)C)NC(=O)[C@H](CCCCN)NC(=O)[C@@H](CC(C)C)NC(=O)[C@@H](CC(C)C)NC(=O)[C@H](CCCCN)NC(=O)[C@@H](CC(C)C)NC(=O)[C@@H](CC(C)C)NC(=O)[C@H](CCCCN)NC(=O)[C@@H](N)CCCCN)C(N)=O	P. aeruginosa PAO1	8 to 16 µg/mL
CC(C)C[C@H](NC(=O)[C@H](CC(C)C)NC(=O)[C@H](CC(C)C)NC(=O)[C@H](CCCCN)NC(=O)[C@H](CC(C)C)NC(=O)[C@@H](CC(C)C)NC(=O)[C@H](CCCCN)NC(=O)[C@@H](CC(C)C)NC(=O)[C@@H](CC(C)C)NC(=O)[C@@H](CCCCN)NC(=O)[C@@H](N)CCCCN)C(N)=O	P. aeruginosa PAO1	4 to 8 µg/mL
CC(C)C[C@H](NC(=O)[C@H](CC(C)C)NC(=O)[C@H](CC(C)C)NC(=O)[C@@H](CCCNC(=N)N)NC(=O)[C@H](CC(C)C)NC(=O)[C@H](CC(C)C)NC(=O)[C@@H](CCCNC(=N)N)NC(=O)[C@H](CC(C)C)NC(=O)[C@H](CC(C)C)NC(=O)[C@@H](CCCNC(=N)N)NC(=O)[C@H](N)CCCNC(=N)N)C(N)=O [HP33, rrLLrLLrLLL] (H-[dR][dR]LL[dR]LL[dR]LLL-NH2)	P. aeruginosa PAO1	4 to 8 µg/mL
CC(C)C[C@@H](NC(=O)[C@@H](CC(C)C)NC(=O)[C@@H](CC(C)C)NC(=O)[C@@H](CCCCN)NC(=O)[C@@H](CC(C)C)NC(=O)[C@@H](CC(C)C)NC(=O)[C@@H](CCCCN)NC(=O)[C@@H](CC(C)C)NC(=O)[C@@H](CC(C)C)NC(=O)[C@@H](CCCCN)NC(=O)[C@H](N)CCCCN)C(N)=O	P. aeruginosa PAO1	2 to 4 µg/mL

###

- Tested on: P. aeruginosa PAO1
- Settings: MH broth pH 7.4, 16–20 h, 37 °C

Compound	MIC P. aeruginosa PAO1
CC(C)C[C@H](NC(=O)[C@H](CC(C)C)NC(=O)[C@H](CC(C)C)NC(=O)[C@H](CCCCN)NC(=O)[C@H](CC(C)C)NC(=O)[C@H](CC(C)C)NC(=O)[C@H](CCCCN)NC(=O)[C@H](CC(C)C)NC(=O)[C@H](CC(C)C)NC(=O)[C@H](CCCCN)NC(=O)[C@@H](N)CCCCN)C(N)=O [ln65]	2 to 4 µg/mL
CC(C)C[C@@H](NC(=O)[C@@H](CC(C)C)NC(=O)[C@@H](CC(C)C)NC(=O)[C@H](CCCCN)NC(=O)[C@@H](CC(C)C)NC(=O)[C@@H](CC(C)C)NC(=O)[C@H](CCCCN)NC(=O)[C@@H](CC(C)C)NC(=O)[C@@H](CC(C)C)NC(=O)[C@H](CCCCN)NC(=O)[C@@H](N)CCCCN)C(N)=O [dln69, KKllKllKlll]	2 to 4 µg/mL
CC(C)C[C@H](NC(=O)[C@H](CC(C)C)NC(=O)[C@H](CC(C)C)NC(=O)[C@H](CCCCN)NC(=O)[C@@H](CC(C)C)NC(=O)[C@@H](CC(C)C)NC(=O)[C@@H](CCCCN)NC(=O)[C@H](CC(C)C)NC(=O)[C@H](CC(C)C)NC(=O)[C@H](CCCCN)NC(=O)[C@@H](N)CCCCN)C(N)=O [HP9, KKLLkllKLLL]	64 µg/mL

###

- Test system: K. pneumoniae NCTC418
- Settings: MH broth pH 7.4, 16–20 h, 37 °C
Parameter Measured: MIC K. pneumoniae NCTC418 (mg/L)

Record Smiles	Units	Quantitative Result
CC(C)C[C@H](NC(=O)[C@H](CC(C)C)NC(=O)[C@H](CC(C)C)NC(=O)[C@H](CCCCN)NC(=O)[C@H](CC(C)C)NC(=O)[C@H](CC(C)C)NC(=O)[C@H](CCCCN)NC(=O)[C@H](CC(C)C)NC(=O)[C@H](CC(C)C)NC(=O)[C@H](CCCCN)NC(=O)[C@@H](N)CCCCN)C(N)=O	mg/L	4

###

The reader will find reported MIC P. aeruginosa PA14 4.13 values listed item by item below.
- Tested on: PA14 4.13 (phoQ)
- Assay Info: microbe, parasite or virus in culture
- Settings: supplementary CSV

Record Smiles	Units	MIC P. aeruginosa PA14 4.13
CC(C)C[C@H](NC(=O)[C@H](CC(C)C)NC(=O)[C@H](CC(C)C)NC(=O)[C@H](CCCCN)NC(=O)[C@H](CC(C)C)NC(=O)[C@H](CC(C)C)NC(=O)[C@H](CCCCN)NC(=O)[C@H](CC(C)C)NC(=O)[C@H](CC(C)C)NC(=O)[C@H](CCCCN)NC(=O)[C@@H](N)CCCCN)C(N)=O	µg/mL	4
CC(C)C[C@H](NC(=O)[C@H](CC(C)C)NC(=O)[C@H](CC(C)C)NC(=O)[C@@H](CCCCN)NC(=O)[C@H](CC(C)C)NC(=O)[C@H](CC(C)C)NC(=O)[C@@H](CCCCN)NC(=O)[C@H](CC(C)C)NC(=O)[C@H](CC(C)C)NC(=O)[C@@H](CCCCN)NC(=O)[C@H](N)CCCCN)C(N)=O	µg/mL	4
CC(C)C[C@H](NC(=O)[C@H](CC(C)C)NC(=O)[C@H](CC(C)C)NC(=O)[C@H](CCCCN)NC(=O)[C@H](CC(C)C)NC(=O)[C@H](CC(C)C)NC(=O)[C@H](CCCCN)NC(=O)[C@H](CC(C)C)NC(=O)[C@H](CC(C)C)NC(=O)[C@@H](CCCCN)NC(=O)[C@@H](N)CCCCN)C(N)=O	µg/mL	4
CC(C)C[C@H](NC(=O)[C@H](CC(C)C)NC(=O)[C@H](CC(C)C)NC(=O)[C@H](CCCCN)NC(=O)[C@H](CC(C)C)NC(=O)[C@H](CC(C)C)NC(=O)[C@@H](CCCCN)NC(=O)[C@H](CC(C)C)NC(=O)[C@H](CC(C)C)NC(=O)[C@@H](CCCCN)NC(=O)[C@H](N)CCCCN)C(N)=O	µg/mL	4
CC(C)C[C@@H](NC(=O)[C@@H](CC(C)C)NC(=O)[C@@H](CC(C)C)NC(=O)[C@H](CCCCN)NC(=O)[C@@H](CC(C)C)NC(=O)[C@@H](CC(C)C)NC(=O)[C@H](CCCCN)NC(=O)[C@@H](CC(C)C)NC(=O)[C@@H](CC(C)C)NC(=O)[C@H](CCCCN)NC(=O)[C@@H](N)CCCCN)C(N)=O	µg/mL	2
CC(C)C[C@H](NC(=O)[C@H](CC(C)C)NC(=O)[C@H](CC(C)C)NC(=O)[C@H](CCCCN)NC(=O)[C@@H](CC(C)C)NC(=O)[C@H](CC(C)C)NC(=O)[C@H](CCCCN)NC(=O)[C@@H](CC(C)C)NC(=O)[C@@H](CC(C)C)NC(=O)[C@@H](CCCCN)NC(=O)[C@@H](N)CCCCN)C(N)=O	µg/mL	2
CC(C)C[C@H](NC(=O)[C@H](CC(C)C)NC(=O)[C@H](CC(C)C)NC(=O)[C@H](CCCCN)NC(=O)[C@H](CC(C)C)NC(=O)[C@H](CC(C)C)NC(=O)[C@@H](CCCCN)NC(=O)[C@H](CC(C)C)NC(=O)[C@H](CC(C)C)NC(=O)[C@@H](CCCCN)NC(=O)[C@@H](N)CCCCN)C(N)=O	µg/mL	8
